Quick list: INH per entry.
# System: Bacillus subtilis
# testProtocol: Inhibition of FtsZ in Bacillus subtilis ATCC 9372 assessed as decrease in cell division by measuring lowest compound concentration at which bacterial filamentation is observed after 5 hrs by phase-contrast light microscopy
Please state the figure in µg/mL; there is no need to write the unit.

compound: CCOCCC(=O)COc1ccc(F)c(C(N)=O)c1F
INH, µg/mL: 32
--
compound: NC(=O)c1c(F)ccc(OCCCCCCl)c1F
INH, µg/mL: 2
--
compound: CCCCC(CC)COc1ccc(F)c(C(N)=O)c1F (stereo not given)
INH, µg/mL: 0.125
--
compound: NC(=O)c1c(F)ccc(OCCCCCCn2cnc3cc([N+](=O)[O-])ccc32)c1F
INH, µg/mL: 64
--
compound: NC(=O)c1c(F)ccc(OCCCCCCBr)c1F
INH, µg/mL: 0.5

Challenge: Quick one: INH of NC(=O)c1c(F)ccc(OCCCCCl)c1F ?
Response given: 2

Challenge: Same lookup for NC(=O)c1c(F)ccc(OCCCCCn2cnc3cc([N+](=O)[O-])ccc32)c1F , please.
Response given: 32

Challenge: Further, for NC(=O)c1c(F)ccc(OCCCn2cnc3ccccc32)c1F ?
Response given: 512

Challenge: Can you check NC(=O)c1c(F)ccc(OCCCCBr)c1F next?
Response given: 1

Challenge: Entry to check: NC(=O)c1c(F)ccc(O)c1F
Response given: 1020
